test system: Hela; assay: cells; parameters: species or system human cancer cell lines; CCK8 cell viability assay, absorbance at 450 nm; conditions: Homo sapiens, 72 h
Test readout: pIC50
Keep it numeric: pIC50 is minus log10 of the concentration in mol/L.

Worked examples, 3 molecules total:
# Molecule, Measurement target, Quantitative readout
data = [
    ("CC(C)C1OC(=O)C(NC(=O)c2cccc(O)c2)C(C)OC(=O)C(C(C)C)OC(=O)C(C)(C)C(=O)C(Cc2ccccc2)OC1=O (stereo not shown)", "Hela", 4.64),
    ("CC(C)C1OC(=O)C(NC(=O)c2cccc(O)c2)C(C)OC(=O)C(C(C)C)OC(=O)C(C)(C)C(O)C(Cc2ccccc2)OC1=O (stereo not shown)", "Hela", 4.63),
    ("CCC(C)C1OC(=O)C(C)(C)C(=O)C(Cc2ccccc2)OC(=O)C(C(C)C)OC(=O)C(NC(=O)c2cccc(O)c2)C(C)OC1=O (stereo not shown) [compound 1, unantimycin B]", "Hela", 4.74),
]

Let us move to another entry and its pIC50.
In plain terms, CCC(C)C1OC(=O)C(C)(C)C(O)C(Cc2ccccc2)OC(=O)C(C(C)C)OC(=O)C(NC(=O)c2cccc(O)c2)C(C)OC1=O (stereo not shown) has a documented pIC50 of 4.82
